molecular target: Nuclear factor erythroid 2-related factor 2 (Mus musculus); assay: Activation of Nrf2 in wild type mouse Hepa1c1c7 cells cytosolic fraction assessed as induction of quinone reductase activity at 10 uM using 2,6-DCIP as substrate in presence of NADH incubated for 48 hrs measured for 1 min relative to control
Assign t whenever fold change (FC) does not fall below 2; assign f whenever it does.

Solved cases below.
compound: O=C(CC(O)c1ccccc1)c1c(O)ccc2ccccc12 (configuration not stated)
cat: t
--
compound: O=C(/C=C/c1ccc2ccccc2c1)c1c(O)ccc2ccccc12
cat: f
--
compound: O=C(/C=C/c1ccnc2ccccc12)c1ccccc1O
cat: t
--
compound: O=C(/C=C/c1ccc2ccccc2c1)c1ccccc1
cat: f
--
compound: O=C(/C=C/c1cccnc1Br)c1ccccc1O
cat: f
--
compound: O=C(/C=C/c1ccccc1)c1ccc2ccccc2c1O
cat: t

Note: attention shifts to another entry.
Could you tell me if the measured fold change (FC) of O=C(/C=C/c1ccccc1)c1ccc2ccccc2c1 reaches 2 or more? f

###

This listing pairs compounds with measured Ratio.
Molecular target: Nuclear factor erythroid 2-related factor 2 (Mus musculus) (UniProt Q60795)
Sequence (whole entry): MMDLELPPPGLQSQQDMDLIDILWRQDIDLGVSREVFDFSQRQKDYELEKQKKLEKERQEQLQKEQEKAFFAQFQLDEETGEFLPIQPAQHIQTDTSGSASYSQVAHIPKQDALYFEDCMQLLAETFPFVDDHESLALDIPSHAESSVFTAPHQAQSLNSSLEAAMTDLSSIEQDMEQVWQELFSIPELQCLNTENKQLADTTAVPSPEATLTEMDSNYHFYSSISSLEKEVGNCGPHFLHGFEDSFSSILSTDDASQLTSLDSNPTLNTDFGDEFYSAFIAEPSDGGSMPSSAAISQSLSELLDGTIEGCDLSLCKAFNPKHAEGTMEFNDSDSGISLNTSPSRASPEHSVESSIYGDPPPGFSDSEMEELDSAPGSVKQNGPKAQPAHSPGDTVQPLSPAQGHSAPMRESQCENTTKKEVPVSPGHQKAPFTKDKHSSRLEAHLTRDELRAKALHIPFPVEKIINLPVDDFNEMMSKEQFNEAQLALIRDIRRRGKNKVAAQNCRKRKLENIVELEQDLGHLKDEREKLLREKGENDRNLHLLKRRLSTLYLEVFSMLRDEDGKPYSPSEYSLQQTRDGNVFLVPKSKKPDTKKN
Assay: Ratio of activation of wild type Nrf2 in mouse Hepa1c1c7 cells cytosolic fraction to activation of Nrf2 in mutant mouse BpRc1 cells cytosolic fraction
Format: cell-based
API doc: respond with a numeric literal and nothing else, no unit.

// solved cases for Ratio follow
compound: O=C(/C=C/c1cccc(Br)n1)c1ccccc1O
Ratio: 1
//
compound: O=C(/C=C/c1cncc(Br)c1)c1ccc2ccccc2c1O
Ratio: 2
//
compound: O=C(/C=C/c1cccnc1Br)c1ccccc1O
Ratio: 0.8
//
compound: O=C(/C=C/c1ccnc2ccccc12)c1ccccc1O
Ratio: 4
//
compound: O=C(/C=C/c1cccc2ccccc12)c1c(O)ccc2ccccc12
Ratio: 1.6
//
compound: O=C(/C=C/c1ccnc2ccccc12)c1ccc2ccccc2c1
Ratio: 1
//
compound: O=C(CC(O)c1ccccc1)c1ccc2ccccc2c1 (stereo not drawn)
Ratio: 2.9

Requested field: Ratio. Item: O=C(/C=C/c1ccc2ccccc2c1)c1ccccc1 0.7

###

molecular target: Nuclear factor erythroid 2-related factor 2 (Mus musculus) (UniProt Q60795); experiment: Activation of Nrf2 in wild type mouse Hepa1c1c7 cells cytosolic fraction assessed as induction of quinone reductase activity at 10 uM using 2,6-DCIP as substrate in presence of NADH incubated for 48 hrs measured for 1 min relative to control
This listing pairs compounds with measured fold change (FC).
API doc: respond with a numeric literal and nothing else, no unit.

Requested field: fold change (FC). Item: O=C(/C=C/c1cncc(Br)c1)c1ccccc1O 1.51

Requested field: fold change (FC). Item: O=C(/C=C/c1ccnc2ccccc12)c1ccc2ccccc2c1 1.28

Requested field: fold change (FC). Item: O=C(/C=C/c1ccnc2ccccc12)c1ccc2ccccc2c1O 1.48

Requested field: fold change (FC). Item: O=C(/C=C/c1cccc2ccccc12)c1c(O)ccc2ccccc12 1.29
